Values were extracted from paper PMC10583824.

biological target: PI5P4Kα (Homo sapiens, UniProt P48426); assay: biochemical; details: ADP-Glo pIC50 PI5P4Kα, Table S1, two decimals; asterisk not explained
Sequence (P48426 whole entry): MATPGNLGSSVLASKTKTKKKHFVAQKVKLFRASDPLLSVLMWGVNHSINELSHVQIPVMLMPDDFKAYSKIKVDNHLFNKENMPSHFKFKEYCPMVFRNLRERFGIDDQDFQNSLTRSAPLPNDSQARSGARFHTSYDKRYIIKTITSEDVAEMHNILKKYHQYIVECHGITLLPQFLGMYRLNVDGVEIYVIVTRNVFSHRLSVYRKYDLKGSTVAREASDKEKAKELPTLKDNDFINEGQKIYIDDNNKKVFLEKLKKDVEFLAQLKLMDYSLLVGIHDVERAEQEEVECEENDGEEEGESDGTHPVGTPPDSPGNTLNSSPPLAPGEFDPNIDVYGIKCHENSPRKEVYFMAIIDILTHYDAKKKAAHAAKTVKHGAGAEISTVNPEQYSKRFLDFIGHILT
Returns: string. Value is label 1 if measured IC50 is below 1000 nM, and label 0 if it is greater than or equal to it.

Some solved cases for reference:
CHEMICAL_STRUCTURE: Cc1cc(Cl)ccc1Nc1ncnc2sc(-c3cccnc3Cl)cc12
ASSIGNED_CATEGORY: label 0
//
CHEMICAL_STRUCTURE: COc1cnccc1-c1cc2ncnc(Nc3ccc(SC)cc3)c2s1
ASSIGNED_CATEGORY: label 1
//
CHEMICAL_STRUCTURE: Cc1cc(Nc2ncnc3sc(-c4cccnc4Cl)cc23)ccc1Cl
ASSIGNED_CATEGORY: label 0

For this molecule, is IC50 lower than 1000 nM? "COc1cnccc1-c1cc2c(Nc3ccc(C4CC4)cc3)ncnc2[nH]1"
label 1

For this molecule, is IC50 lower than 1000 nM? "CS(=O)(=O)c1ccc(Nc2ncnc3sc(-c4ccncc4)cc23)cc1"
label 0

For this molecule, is IC50 lower than 1000 nM? "CSc1ccc(Nc2ncnc3sc(-c4cncnc4)cc23)cc1"
label 1

For this molecule, is IC50 lower than 1000 nM? "CSc1ccc(Nc2ncnc3cc(-c4cccnc4Cl)sc23)cc1"
label 1

For this molecule, is IC50 lower than 1000 nM? "Cc1cc2c(Nc3ccc(N4CCCC4=O)c(C)c3)ncnc2s1"
label 0
